Item-by-item account of Emax
# TEST SYSTEM: Human AMPK α2β2γ1 (Homo sapiens, UniProt O43741+P54619+P54646)
# Construct: The full length cDNAs of human AMPK β2 (NM_005399.3) and human AMPK α2 (NM_006252.3); The full length cDNAs of human AMPK β2 (NM_005399.3); the full length cDNA of human AMPK γ1 (NM_002733.3); 6xHis (N); made in house; host or cells: Escherichia coli BL21 CodonPlus (DE3)-RIL (AMPK); BL21 Star (DE3) (CaMKK2)
# Sequence (P54646 whole entry): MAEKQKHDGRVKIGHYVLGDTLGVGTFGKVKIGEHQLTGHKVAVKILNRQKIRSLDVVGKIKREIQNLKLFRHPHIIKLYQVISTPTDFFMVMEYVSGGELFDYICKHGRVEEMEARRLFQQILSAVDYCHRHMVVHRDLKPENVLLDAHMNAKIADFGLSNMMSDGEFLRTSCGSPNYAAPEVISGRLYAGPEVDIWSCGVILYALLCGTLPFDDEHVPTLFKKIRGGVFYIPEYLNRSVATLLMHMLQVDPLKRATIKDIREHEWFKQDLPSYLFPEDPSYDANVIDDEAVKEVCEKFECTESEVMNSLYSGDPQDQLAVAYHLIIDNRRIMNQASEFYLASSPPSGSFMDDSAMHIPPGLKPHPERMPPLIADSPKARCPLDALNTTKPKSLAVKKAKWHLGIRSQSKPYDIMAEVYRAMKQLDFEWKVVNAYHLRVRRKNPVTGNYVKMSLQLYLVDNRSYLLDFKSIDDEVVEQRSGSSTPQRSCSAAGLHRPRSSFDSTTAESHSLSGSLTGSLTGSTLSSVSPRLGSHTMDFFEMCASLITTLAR
# Sequence (O43741 whole entry): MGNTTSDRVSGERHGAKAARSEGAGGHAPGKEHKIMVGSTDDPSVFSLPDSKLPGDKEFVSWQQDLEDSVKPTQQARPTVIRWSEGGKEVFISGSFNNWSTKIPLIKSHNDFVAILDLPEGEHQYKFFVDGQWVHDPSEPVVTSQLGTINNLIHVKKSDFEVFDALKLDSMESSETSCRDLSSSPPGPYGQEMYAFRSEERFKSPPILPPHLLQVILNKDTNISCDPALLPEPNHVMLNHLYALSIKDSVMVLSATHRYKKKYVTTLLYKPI
# Sequence (P54619 whole entry): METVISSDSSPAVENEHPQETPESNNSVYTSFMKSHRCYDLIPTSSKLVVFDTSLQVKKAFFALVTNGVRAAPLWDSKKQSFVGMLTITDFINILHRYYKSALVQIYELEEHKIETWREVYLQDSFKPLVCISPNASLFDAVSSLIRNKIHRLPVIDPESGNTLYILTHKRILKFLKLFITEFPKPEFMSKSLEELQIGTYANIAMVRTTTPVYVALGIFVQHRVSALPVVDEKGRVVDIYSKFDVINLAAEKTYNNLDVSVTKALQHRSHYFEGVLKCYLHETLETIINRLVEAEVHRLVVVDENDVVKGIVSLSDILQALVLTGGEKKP
# ASSAY DETAILS: Test Example 2: AMPK activator evaluation, mobility-shift kinase assay after CaMKK2 phosphorylation
# Type: biochemical
# CONDITION: maximum rate of increase in activity within the measurement range, control = 100%

{"COMPOUND": "OCCn1ccc(CNc2nc3nc(O[C@@H]4CO[C@H]5[C@@H]4OC[C@H]5O)[nH]c3cc2Cl)n1", "TEST SYSTEM": "Human AMPK α2β2γ1 (Homo sapiens, UniProt O43741+P54619+P54646)", "Emax": "388%"}
{"COMPOUND": "CS(=O)(=O)NCCOc1cc(F)c(CNc2nc3nc(O[C@@H]4CO[C@H]5[C@@H]4OC[C@H]5O)[nH]c3cc2Cl)c(F)c1", "TEST SYSTEM": "Human AMPK α2β2γ1 (Homo sapiens, UniProt O43741+P54619+P54646)", "Emax": "602%"}
{"COMPOUND": "COCCOc1cc(F)c2c(c1)OCC2Nc1nc2nc(O[C@@H]3CO[C@H]4[C@@H]3OC[C@H]4O)[nH]c2cc1Cl (stereo partly drawn)", "TEST SYSTEM": "Human AMPK α2β2γ1 (Homo sapiens, UniProt O43741+P54619+P54646)", "Emax": "569%"}
{"COMPOUND": "O[C@@H]1CO[C@H]2[C@@H]1OC[C@H]2Oc1nc2nc(NCc3ccccc3F)c(Cl)cc2[nH]1", "TEST SYSTEM": "Human AMPK α2β2γ1 (Homo sapiens, UniProt O43741+P54619+P54646)", "Emax": "499%"}
{"COMPOUND": "OCCCOc1cc(F)c(CNc2nc3nc(O[C@@H]4CO[C@H]5[C@@H]4OC[C@H]5O)[nH]c3cc2Cl)c(F)c1", "TEST SYSTEM": "Human AMPK α2β2γ1 (Homo sapiens, UniProt O43741+P54619+P54646)", "Emax": "475%"}
{"COMPOUND": "COC/C=C/c1cc(F)c2c(c1)CCC2Nc1nc2nc(O[C@@H]3CO[C@H]4[C@@H]3OC[C@H]4O)[nH]c2cc1Cl (stereo partly drawn)", "TEST SYSTEM": "Human AMPK α2β2γ1 (Homo sapiens, UniProt O43741+P54619+P54646)", "Emax": "553%"}

---

Overview of reported EC150 across a group of compounds:
# TEST SYSTEM: Human AMPK α2β2γ1 (Homo sapiens, UniProt O43741+P54619+P54646)
# Construct: The full length cDNAs of human AMPK β2 (NM_005399.3) and human AMPK α2 (NM_006252.3); The full length cDNAs of human AMPK β2 (NM_005399.3); the full length cDNA of human AMPK γ1 (NM_002733.3); 6xHis (N); made in house; host or cells: Escherichia coli BL21 CodonPlus (DE3)-RIL (AMPK); BL21 Star (DE3) (CaMKK2)
# ASSAY DETAILS: Test Example 2: AMPK activator evaluation, mobility-shift kinase assay after CaMKK2 phosphorylation
# Type: biochemical
# CONDITION: compound concentration showing 150% relative to the control (100%)
# Source text: The full length cDNAs of human AMPK β2 (NM_005399.3) and human AMPK α2 (NM_006252.3) were inserted into the MCS1 and MCS2 of the pETDuet-1 vector to prepare a human AMPK β2 and human AMPK α2 (6× His tag at the 5′ terminus) expressing plasmid. […] To detect phosphorylated fluorescent substrates, the reaction liquid was applied to a measuring device, LabChip EZ Reader II manufactured by Caliper Life Science, Inc., for detecting fluorescence by using differences in mobility due to differences in charge. […]
OBSERVED PROPERTY: EC150

{"COMPOUND": "COCCOc1cc(F)c2c(c1)CC[C@@H]2Nc1nc2nc(O[C@@H]3CO[C@H]4[C@@H]3OC[C@H]4O)[nH]c2cc1Cl [Compound I-2-220]", "RESULT": "1.1 nM"}
{"COMPOUND": "OC[C@@H]1C[C@H](Oc2nc3nc(NCc4c(F)cccc4F)c(Cl)cc3[nH]2)CO1 [Compound I-2-19]", "RESULT": "74 nM"}
{"COMPOUND": "CN1CCC(Oc2cc(F)c(CNc3nc4nc(O[C@@H]5CO[C@H]6[C@@H]5OC[C@H]6O)[nH]c4cc3Cl)c(F)c2)CC1 [Compound I-2-192]", "RESULT": "7.6 nM"}
{"COMPOUND": "OCCOc1cc(F)c(CNc2nc3nc(O[C@@H]4CO[C@H]5[C@@H]4OC[C@H]5O)[nH]c3cc2Cl)c(F)c1 [Compound I-1-15]", "RESULT": "5.8 nM"}
{"COMPOUND": "COCCOc1cc(F)c2c(c1)OCC2Nc1nc2nc(O[C@@H]3CO[C@H]4[C@@H]3OC[C@H]4O)[nH]c2cc1Cl (stereo partly drawn) [Compound I-2-185]", "RESULT": "6 nM"}
{"COMPOUND": "O[C@@H]1CO[C@H]2[C@@H]1OC[C@H]2Oc1nc2nc(/C=C/c3ccc(F)cc3F)c(Cl)cc2[nH]1 [Compound I-2-244]", "RESULT": "92 nM"}

---

# TEST SYSTEM: Human AMPK α2β2γ1 (Homo sapiens, UniProt O43741+P54619+P54646)
# Construct: The full length cDNAs of human AMPK β2 (NM_005399.3) and human AMPK α2 (NM_006252.3); The full length cDNAs of human AMPK β2 (NM_005399.3); the full length cDNA of human AMPK γ1 (NM_002733.3); 6xHis (N); made in house; host or cells: Escherichia coli BL21 CodonPlus (DE3)-RIL (AMPK); BL21 Star (DE3) (CaMKK2)
# ASSAY DETAILS: Test Example 2: AMPK activator evaluation, mobility-shift kinase assay after CaMKK2 phosphorylation
# Format: biochemical
# CONDITION: compound concentration showing 150% relative to the control (100%)
# From the text: The full length cDNAs of human AMPK β2 (NM_005399.3) and human AMPK α2 (NM_006252.3) were inserted into the MCS1 and MCS2 of the pETDuet-1 vector to prepare a human AMPK β2 and human AMPK α2 (6× His tag at the 5′ terminus) expressing plasmid. […] To detect phosphorylated fluorescent substrates, the reaction liquid was applied to a measuring device, LabChip EZ Reader II manufactured by Caliper Life Science, Inc., for detecting fluorescence by using differences in mobility due to differences in charge. […]
Binarize EC150 at 30 nM; below is true (1), at or above is false (0).

{"MOLECULE": "O[C@@H]1CO[C@H]2[C@@H]1OC[C@H]2Oc1nc2nc(NCc3cccs3)c(Cl)cc2[nH]1", "ANSWER LABEL": "false (0)"}
{"MOLECULE": "OCCO[C@@H]1CO[C@H]2[C@@H]1OC[C@H]2Oc1nc2nc(NCc3c(F)cccc3F)c(Cl)cc2[nH]1", "ANSWER LABEL": "false (0)"}
{"MOLECULE": "Cc1cccc(F)c1CNc1nc2nc(O[C@@H]3CO[C@H]4[C@@H]3OC[C@H]4O)[nH]c2cc1Cl", "ANSWER LABEL": "true (1)"}
{"MOLECULE": "Cn1cc(-c2cc(F)c(CNc3nc4nc(O[C@@H]5CO[C@H]6[C@@H]5OC[C@H]6O)[nH]c4cc3Cl)c(F)c2)cn1", "ANSWER LABEL": "true (1)"}
{"MOLECULE": "COCCOc1cc(F)c2c(c1)CCC2Nc1nc2nc(O[C@@H]3CO[C@H]4[C@@H]3OC[C@H]4O)[nH]c2cc1Cl (some centres unmarked)", "ANSWER LABEL": "true (1)"}
{"MOLECULE": "O=C(Nc1nc2nc(O[C@@H]3CO[C@H]4[C@@H]3OC[C@H]4O)[nH]c2cc1Cl)c1ccc2ccccc2c1", "ANSWER LABEL": "false (0)"}
{"MOLECULE": "CN(C)CCCc1cc(F)c(CNc2nc3nc(O[C@@H]4CO[C@H]5[C@@H]4OC[C@H]5O)[nH]c3cc2Cl)c(F)c1", "ANSWER LABEL": "true (1)"}
